- experimental_details: Biodistribution in HEK-ACE2/HEK-ACE xenografted mice
- Type: in vivo, mouse
- test_context: female, CD1/nude, mouse, kidneys, iv, 0.5 nmol, total radioactivity, 3 h after i.v. injection, decay-corrected, n = 3; read-out: Biodistribution: kidneys (renal retention)
Residues, ends and D or L forms follow the SMILES beside them. *: point of attachment. DOTA = O=C(O)CN1CCN(CC(=O)O)CCN(CC(=O)*)CCN(CC(=O)O)CC1; Ahx = NCCCCCC(=O)O
reported_property: tissue uptake at 3 h (%ID/g)
Give bare numbers, in %ID/g.

Request: Fill in the blank: the reported tissue uptake at 3 h of CC[C@H](C)[C@H](NC(=O)[C@H](CCC(N)=O)NC(=O)[C@@H]1CCCN1C(=O)[C@H](CCCNC(=N)N)NC(=O)[C@@H]1CCCN1C(=O)[C@H](Cc1c[nH]c2ccccc12)NC(=O)[C@H](CCC(=O)O)NC(=O)CCCCCNC(=O)CCCCCNC(=O)CN1CCN(CC(=O)O)CCN(CC(=O)O)CCN(CC(=O)O)CC1)C(=O)N1CCC[C@H]1C(=O)N1CCC[C@H]1C(=O)O [[^67Ga]Ga-DOTA-BPP9a, metal not drawn] ({DOTA-Ahx-Ahx}-EWPRPQIPP-OH) is ____.
Response: 3.22

Value source: paper PMC10113987
